# Tested on: CXF 243 human tumor xenograft cells
# assay: Oncotest tumor clonogenic assay, CXF 243
# Type: cell-based
# test-conditions: colony formation, Colon CXF 243, adeno carcinoma, pd, read-out: Absolute IC50
measured-parameter: IC50 (nM)
The response must be a number in nM with no trailing unit.

Qu. Form field - read-out: IC50; system: CXF 243 human tumor xenograft cells; submitted item: "CO[C@@H](C)Cn1c(=O)n(C)c2cnc3ccc(-c4cncc(C(C)(C)O)c4)cc3c21"
Ans. 237

---

# assay: Pharmacokinetic properties in dogs
# Type: in vivo, dog
# test-conditions: both sexes, beagle, dog, plasma, oral gavage, HEC suspension, 12 mg/kg, 2 animals
measured-parameter: AUC (ng·h/mL)
The response must be a number in ng·h/mL with no trailing unit.

Qu. Form field: reported AUC of "CO[C@@H](C)Cn1c(=O)n(C)c2cnc3ccc(-c4cncc(C(C)(C)O)c4)cc3c21"
Ans. 19200

---

# tested-target: DNA-PK (Homo sapiens)
measured-parameter: IC50 (nM)
The response must be a number in nM with no trailing unit.

Qu. Form field: reported IC50 of CO[C@@H](C)Cn1c(=O)n(C)c2cnc3ccc(-c4cncc(C(C)(C)O)c4)cc3c21 [Example 1]
Ans. 4.24

---

# System: MEXF 276 human tumor xenograft cells
# assay: Oncotest tumor clonogenic assay, MEXF 276
# Assay type: cell-based
# test-conditions: colony formation, Melanoma MEXF 276, amelanotic melanoma, md, read-out: Absolute IC50
measured-parameter: IC50 (nM)
The response must be a number in nM with no trailing unit.

Qu. Form field: reported IC50 of "CO[C@@H](C)Cn1c(=O)n(C)c2cnc3ccc(-c4cncc(C(C)(C)O)c4)cc3c21"
Ans. 157

---

# assay: Pharmacokinetic properties in dogs
# Assay type: in vivo, dog
# test-conditions: both sexes, beagle, dog, plasma, oral gavage, HEC suspension, 3 mg/kg, 10 animals
measured-parameter: AUC
Please provide the amount together with its unit, number first.

Qu. Form field: reported AUC of "CO[C@@H](C)Cn1c(=O)n(C)c2cnc3ccc(-c4cncc(C(C)(C)O)c4)cc3c21"
Ans. 3780 ng·h/mL

---

# Tested on: CXF 1103 human tumor xenograft cells
# assay: Oncotest tumor clonogenic assay, CXF 1103
# Type: cell-based
# test-conditions: CXF1103, colony formation, Colon CXF 1103, adeno carcinoma, pd, read-out: Absolute IC50
measured-parameter: IC50

Qu. Form field: reported IC50 of CO[C@@H](C)Cn1c(=O)n(C)c2cnc3ccc(-c4cncc(C(C)(C)O)c4)cc3c21 [Example 1]
Ans. > 200 nM

---

# assay: Pharmacokinetic properties in dogs
# Format: in vivo, dog
# test-conditions: both sexes, beagle, dog, plasma, oral gavage, HEC suspension, 4.5 mg/kg, 2 animals
measured-parameter: AUC (ng·h/mL)
The response must be a number in ng·h/mL with no trailing unit.

Qu. Form field: reported AUC of "CO[C@@H](C)Cn1c(=O)n(C)c2cnc3ccc(-c4cncc(C(C)(C)O)c4)cc3c21"
Ans. 5920

---

# System: AKT1(pT308)
# assay: AlphaScreen SureFire p-AKT (Thr308) in U87MG cells
# Assay type: cell-based
# test-conditions: Homo sapiens, U-87 MG, 1 h, n = 4, read-out: AKT1(pT308) Absolute IC50
measured-parameter: pIC50
In textbook form, pIC50 equals minus log to base ten of the concentration in mol/L.

Qu. Form field - read-out: pIC50; system: AKT1(pT308); submitted item: CO[C@@H](C)Cn1c(=O)n(C)c2cnc3ccc(-c4cncc(C(C)(C)O)c4)cc3c21 [Example 1]
Ans. 6.97

---

# Tested on: PRXF DU145 human tumor xenograft cells
# assay: Oncotest tumor clonogenic assay, PRXF DU145
# Format: cell-based
# test-conditions: DU-145, colony formation, Prostate PRXF DU145, adeno carcinoma, ud, read-out: Absolute IC50
measured-parameter: IC50 (nM)
The response must be a number in nM with no trailing unit.

Qu. Form field: reported IC50 of "CO[C@@H](C)Cn1c(=O)n(C)c2cnc3ccc(-c4cncc(C(C)(C)O)c4)cc3c21"
Ans. 269

---

# Test system: HNXF 908 human tumor xenograft cells
# assay: Oncotest tumor clonogenic assay, HNXF 908
# Format: cell-based
# test-conditions: colony formation, Head and Neck HNXF 908, squamous epithelium carcinoma, md, read-out: Absolute IC50
measured-parameter: pIC50
In textbook form, pIC50 equals minus log to base ten of the concentration in mol/L.

Qu. Form field - read-out: pIC50; system: HNXF 908 human tumor xenograft cells; submitted item: "CO[C@@H](C)Cn1c(=O)n(C)c2cnc3ccc(-c4cncc(C(C)(C)O)c4)cc3c21"
Ans. 7.28

---

# Test system: LXFE 1422 human tumor xenograft cells
# assay: Oncotest tumor clonogenic assay, LXFE 1422
# Type: cell-based
# test-conditions: colony formation, NSCLC LXFE 1422, squamous cell carcinoma, ud, read-out: Absolute IC50
measured-parameter: IC50 (nM)
The response must be a number in nM with no trailing unit.

Qu. Form field: reported IC50 of "CO[C@@H](C)Cn1c(=O)n(C)c2cnc3ccc(-c4cncc(C(C)(C)O)c4)cc3c21"
Ans. 231

---

# assay: Pharmacokinetic properties in dogs
# Assay type: in vivo, dog
# test-conditions: both sexes, beagle, dog, plasma, oral gavage, HEC suspension, 9 mg/kg, 2 animals
measured-parameter: AUC (ng·h/mL)
The response must be a number in ng·h/mL with no trailing unit.

Qu. Form field: reported AUC of "CO[C@@H](C)Cn1c(=O)n(C)c2cnc3ccc(-c4cncc(C(C)(C)O)c4)cc3c21"
Ans. 10800

---

# assay: Pharmacokinetic properties in dogs
# Format: in vivo, dog
# test-conditions: both sexes, beagle, dog, plasma, oral gavage, HEC suspension, 6 mg/kg, 2 animals
measured-parameter: AUC (ng·h/mL)
The response must be a number in ng·h/mL with no trailing unit.

Qu. Form field: reported AUC of "CO[C@@H](C)Cn1c(=O)n(C)c2cnc3ccc(-c4cncc(C(C)(C)O)c4)cc3c21"
Ans. 9620

---

# Test system: HT-1080
# assay: Cell proliferation assay (CellTiter-Glo), HT-1080
# Assay type: cell-based
# test-conditions: Homo sapiens, HT-1080, 72 h
measured-parameter: pIC50
In textbook form, pIC50 equals minus log to base ten of the concentration in mol/L.

Qu. Form field: reported pIC50 of CO[C@@H](C)Cn1c(=O)n(C)c2cnc3ccc(-c4cncc(C(C)(C)O)c4)cc3c21 [Example 1]
Ans. 7.14
